Hello, the source for this data is patent US10028931B2, in case you need it.

Tested on: Staphylococcus aureus strain UAMS-1
PROCEDURE DETAILS: Antimicrobial susceptibility testing (MIC, broth microdilution)
Format: cell-based
CONDITION SUMMARY: Staphylococcus aureus, UAMS1, 18 h, S. aureus UAMS-1, Mueller Hinton broth, 37° C., read-out: MIC
Method: The RNase P inhibitors described herein were tested for antimicrobial activity toward Staphylococcus aureus strain UAMS-1. Individual wells of a 96-well microtiter plate were inoculated with ˜1×10^5 colony-forming units (CFU) of the indicated organism, containing two-fold increasing concentrations (from 0 to 256 μg mL^−1) of the indicated antibiotic or putative RnpA inhibitor, and incubated at 37° C. for 18 hours in Mueller Hinton broth. […]
Parameter MIC: see the listing below.
OBSERVABLE: MIC (µg/mL)

[[record]]
smiles_str = "COCCOC(=O)CCC(=O)NC(=S)NNC(=O)COc1ccc(C(C)C)cc1"
limit_sign = ">"
assay_result = 128

[[record]]
smiles_str = "CC(C)c1ccc(OCC(=O)NNC(=S)NC(=O)c2cccc(-c3ccccc3)n2)cc1"
limit_sign = ">"
assay_result = 128

[[record]]
smiles_str = "Cc1ccccc1C(=O)NNC(=S)NC(=O)COc1ccccc1"
limit_sign = "="
assay_result = 32

[[record]]
smiles_str = "CC(C)C(=O)Nc1ccc(C(=O)NNC(=S)NC(=O)c2ccco2)cc1"
limit_sign = ">"
assay_result = 128

[[record]]
smiles_str = "CC(C)c1ccc(OCC(=O)NNC(=S)NC(=O)c2c[nH]c3ccccc23)cc1"
limit_sign = "="
assay_result = 32

[[record]]
smiles_str = "CC(C)c1ccc(OCC(=O)NNC(=S)NC(=O)c2cc3cc(F)ccc3[nH]2)cc1"
limit_sign = "="
assay_result = 64

[[record]]
smiles_str = "CC(C)c1ccc(CCNc2c(NCCc3ccco3)c(=O)c2=O)cc1"
limit_sign = "="
assay_result = 256

[[record]]
smiles_str = "CCCc1ccc(OCC(=O)NNC(=S)NC(=O)c2ccco2)cc1"
limit_sign = ">"
assay_result = 128

[[record]]
smiles_str = "Cc1ccccc1OCC(=O)NNC(=S)NC(=O)c1ccco1"
limit_sign = "="
assay_result = 16

[[record]]
smiles_str = "CC(C)c1ccc(OCC(=O)NNC(=S)NC(=O)c2ccsc2)cc1"
limit_sign = "="
assay_result = 64

[[record]]
smiles_str = "CCCOc1ccc(OCC(=O)NNC(=S)NC(=O)c2ccco2)cc1"
limit_sign = "="
assay_result = 128

[[record]]
smiles_str = "O=C(COc1ccc(Cl)cc1Cl)NNC(=S)NC(=O)c1ccco1"
limit_sign = "="
assay_result = 4

[[record]]
smiles_str = "O=C(CCc1ccccc1)NNC(=S)NC(=O)c1ccco1"
limit_sign = ">"
assay_result = 128

[[record]]
smiles_str = "CCCCC(=O)Nc1ccc(C(=O)NNC(=S)NC(=O)c2ccco2)cc1"
limit_sign = ">"
assay_result = 128

[[record]]
smiles_str = "CC(C)c1ccc(OCC(=O)NNC(=O)c2cccs2)cc1"
limit_sign = ">"
assay_result = 256

[[record]]
smiles_str = "CC(C)CNC(=S)NNC(=O)c1ccc(COc2ccc(C(C)(C)C)cc2)o1"
limit_sign = ">"
assay_result = 128

[[record]]
smiles_str = "O=C(Cc1ccccc1)NNC(=S)NC(=O)c1ccco1"
limit_sign = ">"
assay_result = 128

[[record]]
smiles_str = "CC(C)c1ccc(CCNc2c(NCc3ccco3)c(=O)c2=O)cc1"
limit_sign = ">"
assay_result = 128

[[record]]
smiles_str = "O=C(NNC(=S)NC(=O)c1ccco1)c1cnccn1"
limit_sign = "="
assay_result = 32

[[record]]
smiles_str = "Cc1ccccc1OCC(=O)NNC(=S)NC(=O)/C=C/c1ccco1"
limit_sign = "="
assay_result = 32

[[record]]
smiles_str = "CC(C)c1ccc(OCC(=O)NNC(=S)NC(=O)c2nc3ccccc3[nH]2)cc1"
limit_sign = "="
assay_result = 128

[[record]]
smiles_str = "Cc1ccc(OCC(=O)NNC(=S)NC(=O)COc2ccccc2)cc1"
limit_sign = "="
assay_result = 16

[[record]]
smiles_str = "CC(C)c1ccc(OCC(=O)NNC(=S)NC(=O)c2ccco2)c(Br)c1"
limit_sign = "="
assay_result = 8

[[record]]
smiles_str = "CC(C)c1ccccc1OCC(=O)NNC(=S)NC(=O)/C=C/c1cccs1"
limit_sign = "="
assay_result = 32

[[record]]
smiles_str = "CC(C)(C)c1ccc(C(=O)Nc2ccc(C(=O)NNC(=S)NC(=O)c3ccco3)cc2)cc1"
limit_sign = "="
assay_result = 32

[[record]]
smiles_str = "CC(C)c1ccc(OCC(=O)NNC(=O)c2ccco2)cc1"
limit_sign = ">"
assay_result = 256

[[record]]
smiles_str = "O=C(/C=C/c1ccccc1)NC(=S)NNC(=O)c1ccco1"
limit_sign = "="
assay_result = 16

[[record]]
smiles_str = "CC(C)c1ccc(OCC(=O)NNC(=S)NC(=O)c2cccnc2)cc1"
limit_sign = "="
assay_result = 64

[[record]]
smiles_str = "CC(C)c1ccc(OCC(=O)NNC(=S)NC(=O)c2ccccn2)cc1"
limit_sign = "="
assay_result = 32

[[record]]
smiles_str = "O=C(NC(=S)NNC(=O)c1ccc(O)cc1O)c1ccco1"
limit_sign = "="
assay_result = 16

[[record]]
smiles_str = "COc1ccc(OCC(=O)NNC(=S)NC(=O)c2ccco2)cc1"
limit_sign = "="
assay_result = 64

[[record]]
smiles_str = "CCOc1ccc(C(=O)NC(=S)NNC(=O)COc2cc(C)ccc2C(C)C)cc1"
limit_sign = "="
assay_result = 32

[[record]]
smiles_str = "CC(C)c1ccc(/C=C/C(=O)NNC(=S)NC(=O)c2ccco2)cc1"
limit_sign = "="
assay_result = 64

[[record]]
smiles_str = "CC(C)c1ccc(OCC(=O)NNC(=S)NC(=O)c2cc3ccccc3[nH]2)cc1"
limit_sign = "="
assay_result = 16

[[record]]
smiles_str = "CC(C)c1ccc(OCC(=O)NNC(=S)NC(=O)c2cnco2)cc1"
limit_sign = "="
assay_result = 64

[[record]]
smiles_str = "O=C(CNC(=O)C1CCCCC1)NNC(=S)NC(=O)c1ccco1"
limit_sign = ">"
assay_result = 128

[[record]]
smiles_str = "CC(C)c1ccc(CCNc2c(NCc3nc4ccccc4[nH]3)c(=O)c2=O)cc1"
limit_sign = ">"
assay_result = 128

[[record]]
smiles_str = "CC(C)c1ccc(OCC(=O)NNC(=S)NC(=O)C2CC2)cc1"
limit_sign = "="
assay_result = 8

